assay: Displacement of [3H]-Flumazenil from Central type benzodiazepine receptor in rat cerebral cortex membrane incubated for 90 mins by liquid scintillation counting method; assay type: cell membranes
# label = Condition met if IC50 < 10 nM else Condition not met

Known results for molecules:
>>> print(df.to_string())
                      smiles_representation        label_value
0  CCOC(=O)c1ncn2c1CN=C(c1ccc(F)cc1)c1ccsc1-2  Condition not met
1  CCOC(=O)c1ncn2c1CN=C(c1cccc(F)c1)c1ccsc1-2      Condition met
2   CCOC(=O)c1ncn2c1CN=C(c1ccccc1)c1ccsc1-2  Condition not met

input: # check: IC50 < 10 nM for CC(C)(C)OC(=O)c1ncn2c1CN=C(c1cccc(F)c1)c1ccsc1-2
output: Condition met

FYI, the data here is from ChEMBL document CHEMBL4680267.
